- Experimental Target: VLA-4 (alpha4beta1 integrin) (UniProt P13612)
- Sequence (P13612 34-1032 limits assumed, chain 1 of 2): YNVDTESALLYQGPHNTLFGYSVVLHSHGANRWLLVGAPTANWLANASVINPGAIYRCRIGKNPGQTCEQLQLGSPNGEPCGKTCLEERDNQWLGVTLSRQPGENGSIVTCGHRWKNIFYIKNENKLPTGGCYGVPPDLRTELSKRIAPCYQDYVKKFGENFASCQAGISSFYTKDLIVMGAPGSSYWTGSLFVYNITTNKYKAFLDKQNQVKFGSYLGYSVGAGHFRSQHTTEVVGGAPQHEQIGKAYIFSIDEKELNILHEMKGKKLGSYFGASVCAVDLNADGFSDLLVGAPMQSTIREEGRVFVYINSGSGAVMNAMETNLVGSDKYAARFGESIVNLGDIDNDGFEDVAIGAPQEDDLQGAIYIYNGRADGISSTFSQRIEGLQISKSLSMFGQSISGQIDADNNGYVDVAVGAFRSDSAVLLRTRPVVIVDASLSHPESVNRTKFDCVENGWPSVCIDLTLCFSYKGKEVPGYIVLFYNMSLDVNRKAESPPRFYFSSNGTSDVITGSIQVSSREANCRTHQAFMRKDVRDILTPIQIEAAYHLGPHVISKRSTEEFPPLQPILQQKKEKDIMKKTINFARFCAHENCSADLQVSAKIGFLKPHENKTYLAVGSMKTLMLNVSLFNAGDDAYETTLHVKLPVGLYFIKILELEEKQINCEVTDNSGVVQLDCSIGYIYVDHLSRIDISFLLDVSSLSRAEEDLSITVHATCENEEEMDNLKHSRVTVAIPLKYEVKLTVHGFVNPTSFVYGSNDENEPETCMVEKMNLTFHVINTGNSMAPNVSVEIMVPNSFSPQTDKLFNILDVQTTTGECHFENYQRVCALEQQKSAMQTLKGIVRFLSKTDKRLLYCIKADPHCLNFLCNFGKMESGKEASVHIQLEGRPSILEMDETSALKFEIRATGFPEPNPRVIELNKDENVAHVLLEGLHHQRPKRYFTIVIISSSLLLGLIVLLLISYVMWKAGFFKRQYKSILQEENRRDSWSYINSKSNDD
- Sequence (P05556 21-798 limits assumed, chain 2 of 2, further chain): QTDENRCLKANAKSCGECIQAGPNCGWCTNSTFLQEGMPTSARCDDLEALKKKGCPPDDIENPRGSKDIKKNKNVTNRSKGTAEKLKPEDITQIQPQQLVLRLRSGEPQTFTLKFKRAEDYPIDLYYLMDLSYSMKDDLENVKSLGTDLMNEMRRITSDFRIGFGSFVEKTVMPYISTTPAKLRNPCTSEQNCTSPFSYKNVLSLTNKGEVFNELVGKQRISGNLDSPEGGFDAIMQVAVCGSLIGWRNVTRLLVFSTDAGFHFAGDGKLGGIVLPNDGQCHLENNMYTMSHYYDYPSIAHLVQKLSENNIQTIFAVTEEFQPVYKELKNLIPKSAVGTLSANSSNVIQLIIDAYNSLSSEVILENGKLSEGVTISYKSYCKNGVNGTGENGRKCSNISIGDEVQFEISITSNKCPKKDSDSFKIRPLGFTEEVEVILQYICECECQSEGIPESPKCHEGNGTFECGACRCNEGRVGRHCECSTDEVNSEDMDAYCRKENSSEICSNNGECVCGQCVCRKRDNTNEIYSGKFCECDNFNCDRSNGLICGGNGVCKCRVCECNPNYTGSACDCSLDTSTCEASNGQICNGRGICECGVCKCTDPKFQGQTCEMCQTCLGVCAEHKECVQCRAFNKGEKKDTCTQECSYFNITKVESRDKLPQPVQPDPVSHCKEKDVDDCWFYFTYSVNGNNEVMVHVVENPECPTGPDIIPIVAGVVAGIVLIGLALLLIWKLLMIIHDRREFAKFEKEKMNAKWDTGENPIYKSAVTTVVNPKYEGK
- Assay Comment: Ramos/BSA-CS1 adhesion inhibition
Square brackets hold non-standard residues; d marks the D form. 2‑MPUB = not defined here
Property Name: IC50

1) H-[dP][dV][dD][dL]-{2‑MPUB} (reading uncertain) [Compound 343] :: > 10 µM
